ASSAY_REMARKS: method code SF-AS, from DOI: 10.1016/0223-5234(92)90084-e
DETAILS: pH 2.0
RECORDED_ENDPOINT: logD

C=CCc1csc(-c2ccc(C(C)C(=O)O)cc2)n1 (stereo unspecified): 3.4
CC(C)c1csc(-c2ccc(C(C)C(=O)O)cc2Cl)n1 (stereo unspecified): 4.26
CC(C(=O)O)c1ccc(-c2nc(-c3ccccc3)cs2)cc1 (stereo unspecified): 4.81
CNC(=O)c1csc(-c2ccc(C(C)C(=O)O)cc2)n1 (stereo unspecified): 2.45
CC(C(=O)O)c1ccc(-c2nc(C(N)=O)cs2)cc1 (stereo unspecified): 2.17

(1) C=Cc1csc(-c2ccc(C(C)C(=O)O)cc2)n1 (stereo unspecified)
(2) CC(C(=O)O)c1ccc(-c2nc(C(=O)N(C)C)cs2)cc1 (stereo unspecified)
// pick min by logD: 1 , 2 Give the label of your selection.
2

###

ASSAY_REMARKS: method code SF-AS, from DOI: 10.1016/0223-5234(92)90084-e
DETAILS: pH 3.4
RECORDED_ENDPOINT: logD
Note: the reply should be a number with no unit written.

Find the recorded logD belonging to CC(C(=O)O)c1ccc(-c2nccs2)c(N)c1 (stereo unspecified) and report it.
2.45

###

ASSAY_REMARKS: method code SF-AS, from DOI: 10.1016/0223-5234(92)90084-e
RECORDED_ENDPOINT: logP

Please review the entries below; each comes with its answer.
CC(C(=O)O)c1ccc(-c2nccs2)c([N+](=O)[O-])c1 (configuration not stated): 2.06
CCCCc1csc(-c2ccc(C(C)C(=O)O)cc2Cl)n1 (configuration not stated): 4.84
CC(C(=O)O)c1ccc(-c2nc(CO)cs2)cc1 (configuration not stated): 2.25
CCc1cnc(-c2ccc(C(C)C(=O)O)cc2F)s1 (configuration not stated): 4.1

(1) CC(C(=O)O)c1ccc(-c2nccs2)c(F)c1 (configuration not stated)
(2) CCCCc1csc(-c2ccc(C(C)C(=O)O)cc2F)n1 (configuration not stated)
Smaller logP value? Options are 1 and 2 Use the label to indicate which entry you chose.
1

(a) COc1cc(C(C)C(=O)O)ccc1-c1nccs1 (configuration not stated)
(b) CCc1csc(-c2ccc(C(C)C(=O)O)cc2)n1 (configuration not stated)
Between a and b , which one has the lower reported logP value? Please respond with the label that marks your chosen entry.
a
(a: 2.47, b: 3.75)

(I) Cc1csc(-c2ccc(C(C)C(=O)O)cc2)n1 (configuration not stated)
(II) CCc1cnc(-c2ccc(C(C)C(=O)O)cc2Cl)s1 (configuration not stated)
Select the item whose logP value is smaller, choosing between I and II . Response format: the label of the selected entry.
I

###

ASSAY_REMARKS: method code SF-AS, from DOI: 10.1016/0223-5234(92)90084-e
DETAILS: pH 2.0
RECORDED_ENDPOINT: logD

CC(C(=O)O)c1ccc(-c2nc(C(F)(F)F)cs2)cc1 (centres undefined): 3.78
CC(=O)c1csc(-c2ccc(C(C)C(=O)O)cc2)n1 (centres undefined): 2.65
CC(C)c1csc(-c2ccc(C(C)C(=O)O)cc2F)n1 (centres undefined): 4.04
CCc1csc(-c2ccc(C(C)C(=O)O)cc2F)n1 (centres undefined): 3.58

###

ASSAY_REMARKS: method code SF-AS, from DOI: 10.1016/0223-5234(92)90084-e
RECORDED_ENDPOINT: logP

Cc1csc(-c2ccc(C(C)C(=O)O)cc2F)n1 (configuration not stated): 3.52
COCc1csc(-c2ccc(C(C)C(=O)O)cc2)n1 (configuration not stated): 2.78
Cc1nc(-c2ccc(C(C)C(=O)O)cc2F)sc1C (configuration not stated): 3.74
Cc1cnc(-c2ccc(C(C)C(=O)O)cc2F)s1 (configuration not stated): 3.55
CCCCc1csc(-c2ccc(C(C)C(=O)O)cc2)n1 (configuration not stated): 4.04
CC(C(=O)O)c1ccc(-c2nc3c(s2)CCCC3)cc1 (configuration not stated): 4.41
CC(C(=O)O)c1ccc(-c2nccs2)c(Cl)c1 (configuration not stated): 3.39
Cc1csc(-c2ccc(C(C)C(=O)O)cc2Cl)n1 (configuration not stated): 3.65
Cc1nc(-c2ccc(C(C)C(=O)O)cc2)sc1C (configuration not stated): 3.36
CCc1nc(-c2ccc(C(C)C(=O)O)cc2)sc1C (configuration not stated): 3.99
Cc1nc(-c2ccc(C(C)C(=O)O)cc2Cl)sc1C (configuration not stated): 3.94
Cc1cnc(-c2ccc(C(C)C(=O)O)cc2Cl)s1 (configuration not stated): 3.66
